Data provenance: the supplement of paper PMC10567573

B1: LYSMD4 (parent)
chain: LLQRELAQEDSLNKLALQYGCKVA

- Variants of: B1
- procedure-details: protein stability index of a GFP-peptide fusion (GPS, HEK-293T) (PSI 1-6); higher = more stable;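 note: lentivirally expressed fusions sorted by FACS into six bins by GFP to DsRed ratio, PSI derived from sequencing read proportions per bin multiplied by bin number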
- experimental-setup: c terminus: a fixed tail appended
quantity: protein stability index

Use the examples below as a reference point.
protein stability index for `K22H` ? 3.15

Same again, this time with `E5H` 1.91

Same again, this time with `E5R` 2.05

Same again, this time with `N13F` 1.65

Same again, this time with `E9Y` 1.9

Others:
protein stability index for `D10L` ? 2.1

Same again, this time with `E9M` 1.85

Same again, this time with `L2Y` 1.61

Same again, this time with `A7R` 1.49

Same again, this time with `A7Q` 2.02
